- assay-system: Human autotaxin enzyme (Homo sapiens)
- Construct: purchased R&D System
- assay-procedure: Evaluation of autotaxin inhibitor, Method C (Test Example 3): 18:0 Lyso PC, choline assay, Resorufin fluorescence
- Format: biochemical
- test-conditions: Assay Method C (Test Example 3), human autotaxin, 18:0 Lyso PC substrate; read-out: Inhibitory Activity (autotaxin enzyme inhibitory activity, IC50 class)
Measured IC50, listed per entry.

CCCCCn1c(O[C@H]2CCN(CCC(=O)O)C2)cc(=O)n2cc(-c3ccc(Cl)cc3)nc12 [Compound 576]    10 to 100 nM
CCCCCn1c(N2CCCC(C)C2)cc(=O)n2cc(-c3ccc(Cl)cc3)nc12 (centres unmarked) [Compound 300]    100 to 1000 nM
CCCCCn1c(N2CCC[C@H]2C(=O)NCCCCC(=O)O)cc(=O)n2cc(-c3ccc(Cl)cc3)nc12 [Compound 345]    < 10 nM
CCCCCn1c(-c2ccccc2F)cc(=O)n2cc(-c3ccc(Cl)cc3)nc12 [Compound 443]    100 to 1000 nM
CCCCCn1c(-c2ccc(C(=O)NCC(O)CO)cc2)cc(=O)n2cc(-c3ccc(Cl)cc3)nc12 (centres unmarked) [Compound 487]    < 10 nM

# query: IC50 of entry CCCCCn1c(N2CCC(NS(C)(=O)=O)CC2)cc(=O)n2cc(-c3ccc(Cl)cc3)nc12 [Compound 298]
100 to 1000 nM

Record: CCCCCn1c(N2CCC[C@H]2C(=O)NCC(C)C(=O)OC)cc(=O)n2cc(-c3ccc(Cl)cc3)nc12 (some centres unmarked) [Compound 571]
100 to 1000 nM

Record: CCCCCn1c(NCCC(=O)NCCC(=O)O)cc(=O)n2cc(-c3ccc(Cl)cc3)nc12 [Compound 617]
100 to 1000 nM

====

- assay-system: Mouse autotaxin enzyme (Mus musculus, UniProt Q9R1E6)
measured-metric: IC50

Cc1cc(=O)n2cc(-c3ccc(Cl)cc3)nc2n1CC(=O)OCc1ccccc1    10 to 100 nM

# query: IC50 of entry CCCCCn1c(C)cc(=O)n2cc(-c3ccc(F)cc3)nc12
10 to 100 nM

Record: CCCCCCCn1c(C)cc(=O)n2cc(-c3ccc(Cl)cc3)nc12
10 to 100 nM

Record: CCCn1c(C)cc(=O)n2cc(-c3ccc(Cl)cc3)nc12
10 to 100 nM

Record: CCCCCCCCCn1c(C)cc(=O)n2cc(-c3ccc(Cl)cc3)nc12
100 to 1000 nM

====

- assay-system: Human autotaxin enzyme (Homo sapiens, UniProt Q13822)
- Construct: purchased R&D System
- assay-procedure: Evaluation of autotaxin inhibitor, Method B (Test Example 2): TG-mTMP fluorescence
- Type: biochemical
- test-conditions: Assay Method B (Test Example 2), human autotaxin; read-out: Inhibitory Activity (autotaxin enzyme inhibitory activity, IC50 class)
pIC50: −log10 of the molar value.
Measured pIC50, listed per entry.

Examples from the recorded data:
C/C=C/c1cc(=O)n2cc(-c3ccc(Cl)cc3)nc2n1CCCCC    7.00 to 8.00
N#CCCCCn1c(-c2ccc(C(=O)NCCN3CCOCC3)cc2)cc(=O)n2cc(-c3ccc(C#N)cc3)nc12    > 8.00
N#CCCCCn1c(-c2ccc(C(N)=O)cc2)cc(=O)n2cc(-c3ccc(Cl)cc3)nc12    > 8.00

Requested read-out pIC50, target or system Human autotaxin enzyme (Homo sapiens, UniProt Q13822), entry CCCCCn1c(-c2ccc(N(C)C)cc2)cc(=O)n2cc(-c3ccc(Cl)cc3)nc12
7.00 to 8.00
